- ASSAY_EXPLANATION: qHTS assay for small molecule activators of the p53 signaling pathway (AID 651743); also: % of control where 0% means no effect
- ASSAY_CONDITIONS: HCT-116 p53RE-bla, beta-lactamase FRET ratio, 16 h; stronger effect = higher value
Results filed as inconclusive are left out.
Hi there, I'd appreciate the recorded activation for every entry that follows.
Field: numeric (%). Do not append units.

Record request: activation value, item `CC(=O)Nc1ccc(N=Nc2cc(C)ccc2O)cc1`
-6.18

I have this molecule here, `CC(C)(C)c1ccc(O)c(C(C)(C)C)c1` , and I need its recorded activation.
1.63

For the molecule `Oc1ccc(Nc2ccccc2)cc1` , what activation is on record?
16.3

May I ask what activation has been recorded for `CCCCOCCOCCOCCO` ?
2.9

Fill blank: measured activation of the molecule `Cc1cc(C)c(N)c(Cl)c1` is ____.
-7.91

Which activation value belongs to `CC1(C)C(=O)NC(=O)N1CO` ?
-0.511

What does the record list as activation for `CCCCCCc1ccc(N)cc1` ?
0.412

Would you mind telling me what activation value was observed for `Cc1ccc(N=Nc2c(O)ccc3ccccc23)c([N+](=O)[O-])c1` ?
-4.13

Name the reported activation value associated with the molecule `CC(=O)c1c(C)c([N+](=O)[O-])c(C(C)(C)C)c([N+](=O)[O-])c1C`
6.99

Consider the molecule `C=CCCCCCCCCC=O` and give its measured activation.
3.83

For the molecule shown here, O=C1NC(=O)C(Cc2ccc(OCCN3COc4ccccc4C3=O)cc2)S1 (centres undefined) , give the reported activation.
0.726

Quick check: activation of `CC(=O)CC(=O)Nc1ccc(C)cc1C` ?
-5.45

Query (molecule): `CC(=O)CC(=O)Nc1ccccc1C` ; field requested: activation
-0.568

Return reported activation; argument: CCOC(=O)C(C)Oc1ccc(Oc2nc3ccc(Cl)cc3o2)cc1 (centres undefined)
-9.4

Endpoint output: activation of `O=C1CCC(C2CCCCC2)CC1` . Value?
-4.16

What measured activation goes with `CCCCCCCC(=O)OC` ?
3.63

I am curious: what activation value has been reported for CC(C)(C)C1CCC(O)CC1 (centres undefined) ?
-3.97

Looking for the measured activation of CCCCC(CC)CN1C(=O)C2C3C=CC(C3)C2C1=O (centres undefined) , can you help?
-2.19

What activation value was documented for this molecule, `C=C(C)C(=O)OCCCCCCCCCCCC` ?
1.89

Reported activation for Cn1c(=O)[nH]c(=O)n(C2CCC(O)CC2)c1=O (centres undefined) : what is it?
2.9

For the molecule shown here, `C/C=C/C/C=C\CCCCCCCCOC(C)=O` , give the reported activation.
-0.736

Request the reported activation associated with `Cl[Si](Cl)(Cl)c1ccccc1`
-5.69

Would you kindly share the measured activation for `CCCCCCCOC(=O)c1ccccc1C(=O)OCCCCCCC` ?
-3.71

Any idea what activation was measured for `OCc1cccc(Oc2ccccc2)c1` ?
-1.52

If you can, please state the reported activation value of `C=C(C)C(=O)OCCOCCOCCOC(=O)C(=C)C` .
-4.46

Query (molecule): `CC1(C)CC(NCCCCCCNC2CC(C)(C)NC(C)(C)C2)CC(C)(C)N1` ; field requested: activation
-1.03

# query: activation of entry `O=C1CCCC/C=C/CCCCCCCCCO1`
0.177

Give the measured activation of `CCCCCCCC[Si](Cl)(Cl)Cl` .
0.514

activation for `CC(C)(C)c1cc(C(C)(C)C)c(O)c(C(C)(C)C)c1` ?
3.15

----------
- System: CP211
- ASSAY_EXPLANATION: qHTS profiling for inhibitors of Plasmodium falciparum proliferation (AID 504749); also: nearly all actives have a fitted effect of over 60% in size
- ASSAY_CONDITIONS: P. falciparum in erythrocytes, SYBR Green DNA, 72 h; series mostly up to 28.7 µM
Records with an inconclusive call do not appear. Calls of active or inactive are those of the source. The call rests on the fitted dose curve; in most records, active means well fitted inhibition curve with a large enough effect; inconclusive means small, poorly fitted or top-dose-only effect; inactive means flat fitted curve, though single readings scatter. Numbered stars: 1 amine (or outer) side, 2 acyl side, 3 side chain; on linkers, the order of the positions; unused ones are H or OH. Bridge positions count the residues as written; N and C are the ends. Square brackets hold non-standard residues; d marks the D form. Peptide text beside a SMILES is read from it. * marks the point of attachment. ξ: configuration not given here. ΔAla(Z-3-ureido) = NC(=O)N/C=C(\N)C(=O)O; X2 = NC1=NC(O)CC(C(N[*:1])C(=O)[*:2])N1; X1 = NC1=NCCC(C(N[*:1])C(=O)[*:2])N1; ξβ3hOrn = NCCCC(N)CC(=O)*; Orn = NCCC[CH](N)C(=O)O; Dap = NC[CH](N)C(=O)O
Valid outcomes are listed here; reply with one: active, inactive

Please share the test call associated with `CC1(C)C(/C=C/C=C/C=C/C=C2\N(CCCCS(=O)(=O)O)c3ccc4ccccc4c3C2(C)C)=[N+](CCCCS(=O)(=O)[O-])c2ccc3ccccc3c21` .
inactive

Hi team, can someone confirm the assay call for CC(=O)OCC(=O)[C@@]1(O)CCC2C3CCC4=CC(=O)CC[C@]4(C)C3=CC[C@@]21C (stereo not given in full) ?
inactive

How did this test come out for CC(C)C[C@H](NC(=O)[C@@H](Cc1c[nH]c2ccccc12)NC(=O)[C@@H](Cc1ccc(O)cc1)NC(=O)[C@@H](CO)NC(=O)[C@@H](Cc1c[nH]c2ccccc12)NC(=O)C(Cc1cnc[nH]1)NC(=O)C1CCC(=O)N1)C(=O)N[C@@H](CCCN=C(N)N)C(=O)N1CCC[C@@H]1C(=O)NCC(N)=O (stereo not given in full) ?
inactive

# outcome recorded in this test, key = CCC(Oc1ccccc1)C(=O)NC1C(=O)N2C1SC(C)(C)C2C(=O)O (stereo not given)
inactive

Look up the recorded call for CC(=O)OCC1=C(C(=O)O)N2C(=O)C(NC(=O)Cc3ccccc3)C2SC1 (stereo not given) in this test.
inactive

Identify the outcome logged in this assay for the compound shown: `O=C1/C(=C\c2cccs2)CCC/C1=C/c1cccs1`
inactive

What did the test return for NCCCC(N)CC(=O)NC1CNC(=O)C(C2CC(O)N=C(N)N2)NC(=O)/C(=C/NC(N)=O)NC(=O)C(CO)NC(=O)C(CO)NC1=O (stereo not drawn) (ξβ3hOrn-[Dap]SS[ΔAla(Z-3-ureido)][X2]; lactam 1-C; configuration not given here) ?
inactive

// outcome(item) with item = CCC(C)C1NC(=O)C(Cc2ccc(O)cc2)NC(=O)C(N)CSSCC(C(=O)N2CCCC2C(=O)NC(CC(C)C)C(=O)NCC(N)=O)NC(=O)C(CC(N)=O)NC(=O)C(CCC(N)=O)NC1=O (stereo not given)
inactive

Entry CC(C)CC1NC(=O)C(CCCN)NC(=O)C(C(C)C)NC(=O)C2CCCN2C(=O)C(Cc2ccccc2)NC(=O)C(CC(C)C)NC(=O)C(CCCN)NC(=O)C(C(C)C)NC(=O)C2CCCN2C(=O)C(Cc2ccccc2)NC1=O (stereo not given) (cyclo(FPV[Orn]LFPV[Orn]L); configuration not given here) : call = ?
active

How did this test come out for CC(N)C(=O)NCC(=O)NC1CSSCC(C(=O)O)NC(=O)C(CO)NC(=O)C(C(C)O)NC(=O)C(Cc2ccccc2)NC(=O)C(C(C)O)NC(=O)C(CCCCN)NC(=O)C(Cc2c[nH]c3ccccc23)NC(=O)C(Cc2ccccc2)NC(=O)C(Cc2ccccc2)NC(=O)C(CC(N)=O)NC(=O)C(CCCCN)NC1=O (stereo not given) ?
inactive

How did this test come out for `Cn1cc(O)nc1NC(=O)Nc1cccc(Cl)c1` ?
inactive

Assay result, entry CCC1NC(=O)C(NC(=O)c2ncccc2O)C(C)OC(=O)C(c2ccccc2)NC(=O)C2CC(=O)CCN2C(=O)C(Cc2ccccc2)N(C)C(=O)C2CCCN2C1=O (stereo not given) — outcome?
inactive

Test call, this compound: CC(C)CC(NC(=O)C(COC(C)(C)C)NC(=O)C(Cc1ccc(O)cc1)NC(=O)C(CO)NC(=O)C(Cc1c[nH]c2ccccc12)NC(=O)C(Cc1cnc[nH]1)NC(=O)C1CCC(=O)N1)C(=O)NC(CCCN=C(N)N)C(=O)N1CCCC1C(=O)NNC(N)=O (stereo not given)
inactive

What call does the record list for NCCCC(N)CC(=O)NCC1NC(=O)C(CO)NC(=O)C(N)CNC(=O)C(C2CCN=C(N)N2)NC(=O)/C(=C/NC(N)=O)NC1=O (stereo not drawn) (H-[Dap]S[Dap](ξβ3hOrn)[ΔAla(Z-3-ureido)][X1]; lactam 1-C; configuration not given here) ?
inactive

# outcome recorded in this test, key = CCOC(=O)C(CS)NCCN[C@@H](CS)C(=O)OCC (stereo not given in full)
inactive

----------
- ASSAY_EXPLANATION: qHTS for Inhibitors of Ubiquitin-specific Protease USP2a Using CHOP2 as the Reporter: Cytotox Assay (AID 652170); also: nearly all actives have a fitted effect of over 70% in size
- ASSAY_CONDITIONS: HCT116 viability, CellTiter-Glo luminescence, 72 h; series mostly up to 46.1 µM
Results filed as inconclusive are left out. Calls of active or inactive are those of the source. The call rests on the fitted dose curve; in most records, active means well fitted cell-killing curve with a large enough effect; inconclusive means small, poorly fitted or top-dose-only effect, or effect the other way; inactive means flat fitted curve, though single readings scatter.
The reply should name one outcome from 1 = active, -1 = inactive

Hello, I am checking results. What call was entered for `O=C(Nc1ccc(S(=O)(=O)Nc2nccs2)cc1)c1ccc2ccccc2c1` ?
-1

Tell me the assay call for `Cc1ccccc1S(=O)(=O)Nc1cnccc1C(=O)Nc1nc(-c2ccccc2)cs1` please.
1

Called result for `CC(C)Cc1ccc(-c2csc(Nc3ccc(S(=O)(=O)Nc4nccs4)cc3)n2)cc1`
-1

Tell me the recorded outcome of this test for `Cc1ccc(S(=O)(=O)Nc2cnccc2C(=O)Nc2ccc(C#N)cc2)cc1` .
-1

# outcome recorded in this test, key = `Cc1ccc(S(=O)(=O)Nc2ccccc2C(=O)Nc2cnc(-c3ccccc3)cn2)cc1`
1

Which outcome was entered for the compound `Cc1ccc(-c2cc(C(=O)NC3CCCCC3)c3ccccc3n2)cc1C` in this test?
-1

What is the recorded call for this compound in the test? `Cc1ccc(S(=O)(=O)Nc2cnccc2C(=O)Nc2nc(-c3ccc(Cl)cc3)cs2)cc1`
1

For `Cc1ccc(-c2cc(C(=O)Nc3ccc(S(=O)(=O)N(C)Cc4nccs4)cc3)c3ccccc3n2)cc1C` , which call appears in the assay record?
-1

Query: recorded result category for `Cc1ccc(-c2cc(C(=O)Nc3ccc4[nH]ccc4c3)c3ccccc3n2)cc1C` in this test
-1

Outcome logged for `O=S(=O)(Nc1nccs1)c1ccc(Nc2nc(-c3ccc(Cl)c(Cl)c3)cs2)cc1` in this assay:
-1

Recorded call for `Cc1ccc(-c2cc(C(=O)Nc3ccc(S(=O)(=O)Nc4ccccn4)cc3)c3ccccc3n2)cc1C` ?
-1

Test call, this compound: `Cc1ccc(S(=O)(=O)Nc2cnccc2C(=O)Nc2ccc(-c3nn[nH]n3)cc2)cc1`
-1

Write down the call the test reported for this compound. Item: `Cc1ccc(S(=O)(=O)Nc2cnccc2C(=O)Nc2nc3ccccc3s2)cc1`
-1

Write down the call the test reported for this compound. Item: `O=C(Nc1ccc(S(=O)(=O)Nc2nccs2)cc1)c1ccc(-c2ccccc2)cc1`
-1

Hi, sorry to bother you, what did the test record for `COc1ccc(C(=O)Nc2nc(-c3ccccc3)cs2)c(NS(=O)(=O)c2ccc(C)cc2)c1` ?
1

Dear colleague, could you share the recorded outcome for `CN(Cc1nccs1)S(=O)(=O)c1ccc(Nc2nc(-c3ccccc3)cs2)cc1` when you have a moment?
-1

Hello, I am checking results. What call was entered for `CC(C)(C)NC(=O)N1CCC(C(=O)Nc2ccc([S+](=O)([O-])Nc3nccs3)cc2)CC1` ?
-1

Outcome? `O=C(Nc1nc(-c2ccccc2)cs1)c1ccncc1NS(=O)(=O)c1ccccc1Cl`
-1

// return assay outcome for `Cc1ccc(-c2cc(C(=O)NCc3ccc(S(N)(=O)=O)cc3)c3ccccc3n2)cc1C`
-1

Query: recorded result category for `O=C(Nc1nc(-c2ccccc2)cs1)c1ccncc1NS(=O)(=O)c1ccc(F)cc1F` in this test
-1
